meta.source: patent US20240270793A1

- MEASUREMENT_TARGET: T1, human HIF-1α PAS-B (238-349), recombinant, His-tagged (human, UniProt Q16665 238-349, labelled with Monolith NT-647 dye for MST)
- T1 construct: range 238-349; Expressed in E. coli BL21(DE3)-Rosetta from pET28a; also called HIF-1α PAS-B domain; PAS-B domain of HIF-1α; not shown: His tag from pET28a vector (BamHI/SacI cloning)
- T1 sequence (Q16665 238-349): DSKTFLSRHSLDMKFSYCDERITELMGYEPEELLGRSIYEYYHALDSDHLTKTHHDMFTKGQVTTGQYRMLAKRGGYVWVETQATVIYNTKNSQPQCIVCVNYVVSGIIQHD
- ASSAY_NAME: MST, NT-647-labelled recombinant 1α PAS-B
RECORDED_METRIC: Kd (µM)
Dear colleague, please return just the value in µM, with no unit written.

Example results:
>>> reported_measurement("CRLIIF (head-to-tail cyclic (cyclo-), also called CRLIIF; cyclic peptide #4) [cyclo-cys arg leu ile ile phe]")
3.8
>>> reported_measurement("cyclo(CKLLIF) (not fully specified, also called CKLLIF; cyclic peptide #5) [cyclo-cys lys leu leu ile phe]")
12
>>> reported_measurement("CKLIIF (head-to-tail cyclic (cyclo-), also called CKLIIF; cyclic peptide #1) [cyclo-cys lys leu ile ile phe]")
2.5

Next up:
Field request: Kd | item: CRLLIF (head-to-tail cyclic (cyclo-), also called CRLLIF; cyclic peptide #2) [cyclo-cys arg leu leu ile phe]
14
